Entry source: patent US8383619B2

# System: K-562/Gleevec
# ASSAY DETAILS: Anti-proliferative assay (Oncodesign)
# Type: cell-based
# REPORTED CONDITIONS: Homo sapiens, K562; K-562/Gleevec (BLOOD); read-out: IC50 (Concentration of test compound)
QUANTITY KIND: IC50 (nM)

INSERT INTO results (structure_string, recorded_value) VALUES
  ('CC(C)c1cc(C(=O)N2Cc3ccc(CN4CCN(C)CC4)cc3C2)c(O)cc1O', 175);

====

# System: Calu-3
# ASSAY DETAILS: Anti-proliferative assay (Oncodesign)
# Assay type: cell-based
# REPORTED CONDITIONS: Homo sapiens; Calu-3 (LUNG); read-out: IC50 (Concentration of test compound)
QUANTITY KIND: IC50

INSERT INTO results (structure_string, recorded_value) VALUES
  ('CC(C)c1cc(C(=O)N2Cc3ccc(CN4CCN(C)CC4)cc3C2)c(O)cc1O', '> 10 µM');

====

# Test system: SK-MES-1
# ASSAY DETAILS: Anti-proliferative assay (Oncodesign)
# Type: cell-based
# REPORTED CONDITIONS: Homo sapiens; SK-MES-1 (LUNG); read-out: IC50 (Concentration of test compound)
QUANTITY KIND: IC50 (nM)

INSERT INTO measurements (structure_string, target_under_test, quantity_kind, measure_unit, recorded_value) VALUES
  ('CC(C)c1cc(C(=O)N2Cc3ccc(CN4CCN(C)CC4)cc3C2)c(O)cc1O', 'SK-MES-1', 'IC50', 'nM', 270);

====

# ASSAY DETAILS: Liver homogenate stability
# Assay type: in vitro ADME
# REPORTED CONDITIONS: 1 μM, 37° C., 120 mins
Counter-ions that a name gives are not always drawn.
QUANTITY KIND: Percentage remaining Human Liver (%)

INSERT INTO results (compound, quantity_kind, measure_unit, recorded_value) VALUES
  ('C=CCOc1cc(O)c(C(=O)N2Cc3ccc(CN4CCN(C)CC4)cc3C2)cc1C(C)C [Example 5]', 'Percentage remaining Human Liver', '%', 81),
  ('COc1cc(O)c(C(C)C)cc1C(=O)N1Cc2ccc(CN3CCN(C)CC3)cc2C1 [Example 1]', 'Percentage remaining Human Liver', '%', 99),
  ('COCOc1cc(O)c(C(=O)N2Cc3ccc(CN4CCN(C)CC4)cc3C2)cc1C(C)C [Example 8]', 'Percentage remaining Human Liver', '%', 102),
  ('CC(C)c1cc(C(=O)N2Cc3ccc(CN4CCN(C)CC4)cc3C2)c(O)cc1OC(=O)N1CCOCC1 [Example 21]', 'Percentage remaining Human Liver', '%', 0),
  ('CC(C)c1cc(C(=O)N2Cc3ccc(CN4CCN(C)CC4)cc3C2)c(OC(=O)C(C)(C)C)cc1OC(=O)C(C)(C)C [Example 24, dihydrochloride]', 'Percentage remaining Human Liver', '%', 2),
  ('C=CCOc1cc(O)c(C(C)C)cc1C(=O)N1Cc2ccc(CN3CCN(C)CC3)cc2C1 [Example 4]', 'Percentage remaining Human Liver', '%', 92),
  ('CC(C)c1cc(C(=O)N2Cc3ccc(CN4CCN(C)CC4)cc3C2)c(OC(=O)N2CCOCC2)cc1OC(=O)N1CCOCC1 [Example 13]', 'Percentage remaining Human Liver', '%', 0),
  ('COCOc1cc(OCOC)c(C(C)C)cc1C(=O)N1Cc2ccc(CN3CCN(C)CC3)cc2C1 [Example 9]', 'Percentage remaining Human Liver', '%', 98),
  ('CC(C)c1cc(C(=O)N2Cc3ccc(CN4CCN(C)CC4)cc3C2)c(O)cc1OC(=O)N1CCCC1 [Example 19]', 'Percentage remaining Human Liver', '%', 0),
  ('COCOc1cc(O)c(C(C)C)cc1C(=O)N1Cc2ccc(CN3CCN(C)CC3)cc2C1 [Example 7]', 'Percentage remaining Human Liver', '%', 92),
  ('C=CCOc1cc(OCC=C)c(C(C)C)cc1C(=O)N1Cc2ccc(CN3CCN(C)CC3)cc2C1 [Example 6]', 'Percentage remaining Human Liver', '%', 94),
  ('CC(C)c1cc(C(=O)N2Cc3ccc(CN4CCN(C)CC4)cc3C2)c(OC(=O)N(C)C)cc1O [Example 16]', 'Percentage remaining Human Liver', '%', 73),
  ('CC(C)c1cc(C(=O)N2Cc3ccc(CN4CCN(C)CC4)cc3C2)c(O)cc1OC(=O)N(C)C [Example 17]', 'Percentage remaining Human Liver', '%', 0),
  ('CC(C)c1cc(C(=O)N2Cc3ccc(CN4CCN(C)CC4)cc3C2)c(OC(=O)N2CCCC2)cc1OC(=O)N1CCCC1 [Example 12]', 'Percentage remaining Human Liver', '%', 43),
  ('CCN(CC)C(=O)Oc1cc(O)c(C(C)C)cc1C(=O)N1Cc2ccc(CN3CCN(C)CC3)cc2C1 [Example 14]', 'Percentage remaining Human Liver', '%', 88),
  ('CC(C)c1cc(C(=O)N2Cc3ccc(CN4CCN(C)CC4)cc3C2)c(OC(=O)OC(C)(C)C)cc1OC(=O)N(C)C [Example 22]', 'Percentage remaining Human Liver', '%', 6),
  ('CCN(CC)C(=O)Oc1cc(O)c(C(=O)N2Cc3ccc(CN4CCN(C)CC4)cc3C2)cc1C(C)C [Example 15]', 'Percentage remaining Human Liver', '%', 35),
  ('CC(C)c1cc(C(=O)N2Cc3ccc(CN4CCN(C)CC4)cc3C2)c(OC(=O)N2CCOCC2)cc1O [Example 20]', 'Percentage remaining Human Liver', '%', 23),
  ('CC(C)c1cc(C(=O)N2Cc3ccc(CN4CCN(C)CC4)cc3C2)c(O)cc1O [Compound X]', 'Percentage remaining Human Liver', '%', 94),
  ('CC(C)c1cc(C(=O)N2Cc3ccc(CN4CCN(C)CC4)cc3C2)c(OC(=O)N2CCCC2)cc1O [Example 18]', 'Percentage remaining Human Liver', '%', 65),
  ('CC(C)c1cc(C(=O)N2Cc3ccc(CN4CCN(C)CC4)cc3C2)c(OC(=O)N(C)C)cc1OC(=O)N(C)C [Example 11]', 'Percentage remaining Human Liver', '%', 31),
  ('CC(C)c1cc(C(=O)N2Cc3ccc(CN4CCN(C)CC4)cc3C2)c(OC(=O)OC(C)(C)C)cc1OC(=O)OC(C)(C)C [Example 23]', 'Percentage remaining Human Liver', '%', 1),
  ('COc1cc(O)c(C(=O)N2Cc3ccc(CN4CCN(C)CC4)cc3C2)cc1C(C)C [Example 2]', 'Percentage remaining Human Liver', '%', 85),
  ('CCN(CC)C(=O)Oc1cc(OC(=O)N(CC)CC)c(C(C)C)cc1C(=O)N1Cc2ccc(CN3CCN(C)CC3)cc2C1 [Example 10]', 'Percentage remaining Human Liver', '%', 56),
  ('COc1cc(OC)c(C(C)C)cc1C(=O)N1Cc2ccc(CN3CCN(C)CC3)cc2C1 [Example 3]', 'Percentage remaining Human Liver', '%', 79);
